The compounds below each have a reported pIC50 tested on Tyrosine-protein kinase receptor UFO (Homo sapiens, UniProt P30530); the values come from various publications.
pIC50: −log10 of the molar value.
metric.name: pIC50

{"compound": "CCc1ccc2c(c1)c(=O)c(C(=O)Nc1ccc(Oc3ncnc4cc(OCCCN5CCOCC5)c(OC)cc34)c(F)c1)c(C)n2C", "reported": 8.10}
{"compound": "CCCC(C)Nc1ncc2c(N3CCC[C@@H](N(C)C)C3)ncc([C@H]3CC[C@H](O)CC3)c2n1 (stereo partly drawn)", "reported": "5.00 to 6.00"}
{"compound": "Nc1ncc(-c2cnn(C3CCNCC3)c2)cc1-c1nnc(C2CCCCC2)o1", "reported": "> 6.30"}
{"compound": "COC[C@H](C)Nc1ncc2c(-c3cnn(C4CCN(C)C4=O)c3)cc([C@H]3CC[C@H](O)CC3)n2n1 (stereo partly drawn)", "reported": "≥ 7.00"}
{"compound": "CCCC(C)Nc1ncc2c(NC3CCN(C)CC3)ncc([C@H]3CC[C@H](O)CC3)c2n1 (stereo partly drawn)", "reported": "≥ 7.00"}
{"compound": "CNC(=O)N1CCC(c2cnc(OC3CCOCC3)c3cnc(N[C@@H](C)COC)nc23)CC1", "reported": "5.00 to 6.00"}
{"compound": "CCCC(C)Nc1ncc2c(OC3CCNCC3)ncc([C@H]3CC[C@H](O)CC3)c2n1 (stereo partly drawn)", "reported": "6.00 to 7.00"}
{"compound": "CC(C)(C)OC(=O)N1CCC(n2cc(-c3cnc(N)c(-c4nnc(-c5ccccn5)o4)c3)cn2)CC1", "reported": "> 6.30"}
{"compound": "CN1CCN(c2ccc(Nc3ncc4c(n3)n3c(cc5ccccc53)c(=O)n4C)cc2)CC1", "reported": "6.60 to 7.30"}
{"compound": "COC[C@H](C)Nc1ncc2c(-c3ccnc(N4CCOC4=O)c3)cc([C@H]3CC[C@H](O)CC3)n2n1", "reported": "≥ 7.00"}
{"compound": "COCCOc1nc(Nc2ccc(CN3CCC(C)CC3)cc2)nc2[nH]cc(-c3ccc(OCc4ncccc4C)cc3F)c12", "reported": "> 7.52"}
{"compound": "Nc1ncc(-c2cn[nH]c2)cc1-c1nnc(-c2ccccc2)o1", "reported": "> 6.30"}
{"compound": "Nc1ncc(-c2cnn(C3CCN(C(=O)Cc4ccccc4)CC3)c2)cc1-c1ncc(-c2ccc(Cl)cc2)o1", "reported": "> 6.30"}
{"compound": "CC(C)(C)c1ccc(-c2nnc(-c3cc(-c4cnn(C5CCNCC5)c4)cnc3N)o2)cc1", "reported": "> 6.30"}
{"compound": "CC[C@H](C)Nc1ncc2c(=O)n(-c3ccc(N)cc3)cc([C@H]3CC[C@H](O)CC3)c2n1", "reported": "5.00 to 6.00"}
{"compound": "CCc1ccc2c(c1)c(=O)c(C(=O)Nc1ccc(Oc3ncnc4[nH]cc(-c5ccccc5)c34)c(F)c1)c(C)n2C", "reported": 8.22}
{"compound": "Cc1cc2c3c(c1)c(=O)c(C(=O)Nc1ccc(Oc4ncnc5[nH]cc(-c6ccccc6)c45)c(F)c1)cn3CCC2", "reported": 6.89}
{"compound": "Nc1ncc(-c2cn[nH]c2)cc1-c1nnc(-c2ccc(F)cc2)o1", "reported": "> 6.30"}
{"compound": "COC[C@H](C)Nc1ncc2c(-c3cnn(C(C)(C)C(=O)N4CC[C@H](O)C4)c3)cc([C@H]3CC[C@H](O)CC3)n2n1", "reported": "≥ 7.00"}
{"compound": "C[C@@H](CC(F)(F)F)Nc1ncc2c(-c3cn[nH]c3)cc([C@H]3CC[C@H](O)CC3)n2n1", "reported": "≥ 7.00"}
{"compound": "COC[C@H](C)Nc1ncc2c([C@H]3CC[C@H](C(=O)N4CC5(COC5)C4)CC3)cc([C@H]3CC[C@H](O)CC3)n2n1", "reported": "6.00 to 7.00"}
{"compound": "CCCC(C)Nc1ncc2c(N3CCC(NC)CC3)ncc([C@H]3CC[C@H](O)CC3)c2n1 (stereo partly drawn)", "reported": "6.00 to 7.00"}
{"compound": "COC[C@H](C)Nc1ncc2c(-c3cnn(C(C)(C)C(=O)N4CCC4)c3)cc([C@H]3CC[C@H](O)CC3)n2n1", "reported": "≥ 7.00"}
{"compound": "CCC1(O)CCC(c2cc(-c3cnn(C4COC4)c3)c3cnc(NC(C)COC)nn23)CC1 (stereo not drawn)", "reported": "≥ 7.00"}
{"compound": "COc1cc2nccc(Oc3ccc(NC(=O)c4c5c(cn(-c6ccccc6)c4=O)C(=O)CCC5)nc3)c2cc1OC", "reported": 8.46}
{"compound": "Nc1ncnn2c(C3CCN(C(=O)C4CCC4)CC3)cc(-c3ccc(NC(=O)c4c5n(n(-c6ccccn6)c4=O)CCC5)cc3)c12", "reported": "< 7.00"}
{"compound": "COc1cc2nccc(Oc3ccc(NC(=O)c4cc5c(n(CC(C)(C)C)c4=O)CCCC5=O)nc3)c2cc1OC", "reported": 8.37}
{"compound": "COC[C@H](C)Nc1ncc2c(-c3cnn(C(C)(C)C(=O)N4CCC5(COC5)C4)c3)cc([C@H]3CC[C@H](O)CC3)n2n1", "reported": "≥ 7.00"}
{"compound": "COC[C@H](C)Nc1ncc2c(-c3cnn(C4CC(C(=O)OC)C4)c3)cc([C@H]3CC[C@H](O)CC3)n2n1 (stereo partly drawn)", "reported": "≥ 7.00"}
{"compound": "COC[C@H](C)Nc1ncc2c(OC3CCOCC3)ncc(-c3cccc(S(=O)(=O)N(C)C)c3)c2n1", "reported": "5.00 to 6.00"}
